B1: TPRG1 (parent)
chain: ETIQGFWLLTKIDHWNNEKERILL

variants of: B1; experiment: protein stability index of a GFP-peptide fusion (GPS, HEK-293T) (PSI 1-6); higher = more stable; conditions: c terminus: a fixed tail appended;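 also: lentivirally expressed fusions sorted by FACS into six bins by GFP to DsRed ratio, PSI derived from sequencing read proportions per bin multiplied by bin number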
MEASURE NAME: protein stability index
One number for each entry.

Please review the following examples before continuing.
# MUTATION ID, OBSERVED RESULT
records = [
    ("K19L", 2.92),
    ("T10W", 2.45),
    ("W15N", 1.57),
    ("L23Y", 4.45),
]

Hey, quick one: what's protein stability index for each of these?
1. N17K
2. R21Q
3. I22K

[3.22, 3.52, 2.15]
